The reader will find reported log10 DC50 values listed item by item below.
study_target: CDK2 (Homo sapiens)
Construct: host or cells: HEK293-CDK2-Hibit
protocol: HiBit Assay Protocol for CDK2 (HIBIT protein quantification, degradation)
Assay type: cell-based
condition_details: HEK293-CDK2-Hibit cells, compound treatment for 6 hours, ABS DC50
Scale type: logarithmic (base 10). Underlying DC50 unit: µM.

Please give the documented log10 DC50 of CC1CCCC1N1C(=O)C2(CC2)c2cnc(NC3CCN(S(=O)(=O)N4CC5(CCN(C(=O)CCCCCCCCCc6cccc7c6n(C)c(=O)n7C6CCC(=O)NC6=O)CC5)C4)CC3)nc21 (centres unmarked)
-1.28

Please report the measured log10 DC50 for O=C1CCC(N2Cc3cc(N4CCC(N5CC(Oc6cccc(S(=O)(=O)c7ccc(Nc8ncc9c(n8)N([C@@H]8CCC[C@@H](O)C8)C(=O)C98CC8)cc7)c6)C5)CC4)ccc3C2=O)C(=O)N1 (some centres unmarked)
-2.22

Return log10 DC50 for the following compound: O=C1CCC(N2Cc3cc(N4CCN(C5CN(c6cccc(S(=O)(=O)N7CCC(Nc8ncc9c(n8)N([C@H]8CCC[C@H](O)C8)C(=O)C98CC8)CC7)c6)C5)CC4)ccc3C2=O)C(=O)N1 (stereo in doubt)
-2.03

Supply measured log10 DC50 of O=C1CCC(N2Cc3cc(C4CN(Cc5cccc(S(=O)(=O)N6CCC(Nc7ncc8c(n7)N([C@@H]7CCC[C@@H](O)C7)C(=O)C87CC7)CC6)c5)C4)ccc3C2=O)C(=O)N1 (some centres unmarked) in your reply.
-1.04

Tell me measured log10 DC50 for C[C@H](c1cccc(S(=O)(=O)N2CC[C@H](Nc3ncc4c(n3)N([C@@H]3CCC[C@@H](O)C3)C(=O)C43CC3)[C@H](F)C2)c1)N1CCN(c2ccc3c(N4CCC(=O)NC4=O)nn(C)c3c2)CC1 please.
-1.92
